Source listed as PubChem BioAssay.

- assay-overview: growth modulation of vineyard yeast isolate – strain RM11-1a, OD600, basal, 24 h, primary screen (AID 1177);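 also: cultures grown under basal conditions with no added stressor; test concentration not given here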
- condition-description: S. cerevisiae RM11-1a growth, OD600, 24 h; higher = more signal, called active from +8 up or from −8 down
Reported z-score values follow for various compounds
measure: z-score

- cpd-smiles: "[N-]=[N+]=Nc1ccccc1[C@@H]1OC(c2ccc(OCCCO)cc2)=N[C@]1(CCS(=O)(=O)c1ccccc1)C(=O)N1CCCCC1"
  observed-value: 2.08
- cpd-smiles: "C=CCOC(=O)[C@H]1[C@@H]2C(=O)O[C@@H](c3ccccc3)[C@@H](c3ccccc3)N2[C@@H](c2ccc(OCCOC(=O)[C@@H]3C[C@@H]4C(=O)NCC(=O)N4[C@@H]3c3ccc(O)cc3)cc2)[C@]12C(=O)Nc1ccc(I)cc12"
  observed-value: 0.305
- cpd-smiles: "CCCC[C@@H]1C[C@H]1[C@@H](NC(=O)c1ccccc1)c1ccccc1"
  observed-value: 0.601
- cpd-smiles: "NC(=O)[C@]1(Cc2ccccc2)N=C(c2ccc(OCCCO)cc2)O[C@@H]1c1ccccc1"
  observed-value: 0.569
